Origin of values: PubChem BioAssay

measuredTarget: Fibroblast growth factor 10 (Homo sapiens)
protocolNotes: compounds binding fibroblast growth factor 10 – biochemical, small-molecule microarray, 635 nm fluorescence, primary screen (AID 1102)
runConditions: FGF10 binding, fluorescence 635 nm, higher = more signal
assayEndpoint: composite z-score
Write the value as a bare number.

Reference set (7 entries):
compound	composite z-score
CC(C)CN1C(=O)[C@@]2(c3ccc([N+](=O)[O-])cc3)CC(=O)N(C3CCCCC3)[C@@H]2c2ccc(CO)cc21	-0.935
CN(C)C(=O)[C@]1(Cc2ccccc2)N=C(c2ccc(OCCCO)cc2)O[C@@H]1c1ccccc1N=[N+]=[N-]	1.5
CC(C)[Si](C#CCCCC#N)(O[C@H](c1ccccc1)c1cn(Cc2cccc(Cl)c2)nn1)C(C)C	0.483
O=C(CS)NCCCCCNC(=O)[C@@H]1C[C@@H]2C(=O)NCC(=O)N2[C@@H]1c1ccc(O)cc1	0.528
C[N+](C)(C)CCCCCCNC(=O)[C@H]1C[C@H]2C(=O)N[C@@H](Cc3ccccc3)C(=O)N2[C@H]1c1cccc(OCCO)c1	0.985
CN1CCC(CCCO)=CC1c1cccs1 (stereo not drawn)	-0.095
CO[C@H]1O[C@H](CO)[C@@H](OC(=O)Nc2ccc(Br)cc2)[C@@H]2OC(=O)[C@H](Cc3cccc(Br)c3)C/C=C/C[C@@H](Cc3cccc(Br)c3)C(=O)O[C@@H]12	0.383

# ---- query compound ----
Enquiry: Record request: composite z-score value, item `O=C1[C@@]23C=C(Br)[C@H](C[C@@H]2COC3)[C@]12CO2`
Return: -0.573

====

# Lookup of reported composite z-score keyed by entry
protocolNotes: probe aEGFR binding to arrayed compounds – biochemical, biotinylated probe, 635/667 nm fluorescence, primary screen (AID 1097);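 also: probe is a biotinylated anti-EGFR antibody binding compounds printed on slides; score combines fluorescence near 667 nm and signal to noise of each spot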
runConditions: small-molecule microarray, higher = more signal
Write the value as a bare number.

Reference set (3 entries):
compound	composite z-score
O=C1O[C@@H](c2ccccc2)[C@@H](c2ccccc2)N2[C@@H](c3ccc(OCCO)cc3)[C@]3(C(=O)Nc4ccc(C#CC5=CCCCC5)cc43)[C@@H](C(=O)N3CCCCCCC3)[C@H]12	1.26
O=C(NC1CC1)[C@@H]1c2ccccc2C(=O)N(C2Cc3ccccc3C2)[C@H]1c1ccc(CO)cc1	-0.16
COc1ccc([Si](C)(C)[C@@H]2[C@@H](CC(=O)N3Cc4ccccc4C[C@H]3CO)O[C@]3(C(=O)N(Cc4cccc(N5CCC5=O)c4)c4ccccc43)[C@H]2C)cc1	0.0227

Enquiry: Record request: composite z-score value, item `[N-]=[N+]=NCc1ccccc1[C@H]1OC(c2ccc(OCCCO)cc2)=N[C@@]1(Cc1ccccc1)C(=O)N1CCCCC1`
Return: 0.038

Enquiry: Now the same for `COCCCNC(=O)[C@@H]1c2ccccc2C(=O)N(Cc2ccccc2OC)[C@H]1c1ccc(CO)cc1`
Return: -0.115

Enquiry: Now the same for `COc1ccc([Si](C)(C)[C@@H]2[C@@H](CC(=O)N3CCC[C@H]3CO)O[C@]3(C(=O)N(Cc4cccc(I)c4)c4ccccc43)[C@H]2C)cc1`
Return: 0.0807

Enquiry: Now the same for `CC(C)(C)OC(=O)CC[C@]1(C(N)=O)N=C(c2ccc(OCCCO)cc2)O[C@H]1c1ccccc1`
Return: 0.372

Enquiry: Now the same for `CCOC(=O)C[C@H]1[C@H](OC(=O)c2ccc(C(=O)c3ccccc3)cc2)[C@@H](NC(=O)Cc2ccc(OC)cc2)c2cc(OCCCO)ccc2N1C(=O)c1ccc2ccccc2n1`
Return: 0.0182

====

measuredTarget: Focal adhesion kinase 1 (Homo sapiens) (UniProt Q05397)
Sequence (Q05397 whole entry, looked up): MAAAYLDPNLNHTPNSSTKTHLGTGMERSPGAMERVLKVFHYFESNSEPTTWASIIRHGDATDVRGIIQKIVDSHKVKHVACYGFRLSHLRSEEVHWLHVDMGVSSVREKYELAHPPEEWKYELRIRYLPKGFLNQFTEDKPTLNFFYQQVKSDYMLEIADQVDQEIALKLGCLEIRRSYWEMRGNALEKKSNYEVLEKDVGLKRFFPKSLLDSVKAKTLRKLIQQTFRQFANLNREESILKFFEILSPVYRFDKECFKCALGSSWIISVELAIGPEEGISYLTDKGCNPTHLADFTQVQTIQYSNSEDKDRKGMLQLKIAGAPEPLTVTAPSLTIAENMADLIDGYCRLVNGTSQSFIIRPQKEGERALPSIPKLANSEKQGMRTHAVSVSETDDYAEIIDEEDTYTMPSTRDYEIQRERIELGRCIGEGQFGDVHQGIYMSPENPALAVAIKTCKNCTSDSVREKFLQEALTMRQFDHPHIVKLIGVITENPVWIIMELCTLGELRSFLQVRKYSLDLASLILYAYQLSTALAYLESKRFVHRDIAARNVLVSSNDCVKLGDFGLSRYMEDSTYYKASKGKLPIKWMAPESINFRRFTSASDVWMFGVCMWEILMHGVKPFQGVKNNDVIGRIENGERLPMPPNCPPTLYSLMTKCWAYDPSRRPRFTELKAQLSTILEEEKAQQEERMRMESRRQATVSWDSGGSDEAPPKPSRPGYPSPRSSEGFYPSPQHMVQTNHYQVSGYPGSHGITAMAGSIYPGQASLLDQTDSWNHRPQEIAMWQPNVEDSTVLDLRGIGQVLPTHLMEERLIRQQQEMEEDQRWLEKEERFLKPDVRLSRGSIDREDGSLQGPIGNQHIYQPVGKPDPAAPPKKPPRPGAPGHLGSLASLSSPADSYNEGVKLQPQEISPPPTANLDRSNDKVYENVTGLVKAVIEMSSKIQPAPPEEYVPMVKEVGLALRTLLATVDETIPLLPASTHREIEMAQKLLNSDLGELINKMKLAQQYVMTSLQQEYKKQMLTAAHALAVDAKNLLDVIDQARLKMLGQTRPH
protocolNotes: PTK2 protein binding on printed compound slides – biochemical, small-molecule microarray, 635/667 nm fluorescence, BSA, DTT, primary screen (AID 1130);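 also: composite of spot emission at 667 nm and signal to noise over triplicate slides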
runConditions: 635 nm fluorescence, higher = more signal
The threshold is inclusive: composite z-score of exactly 0.3 counts as 1; values below receive 0.

Below, 2 compounds whose answers are already recorded.
compound	labelValue
C=CCOC(=O)[C@H]1[C@@H]2C(=O)O[C@@H](c3ccccc3)[C@@H](c3ccccc3)N2[C@@H](c2ccc(OCCOC(=O)[C@H]3C[C@H]4C(=O)N[C@@H](CCCCN(C)C)C(=O)N4[C@H]3c3cccc(OCCO)c3)cc2)[C@]12C(=O)Nc1ccc(I)cc12	0
COc1ccc(C(O)C2C=CC3C(=O)N(C)C(=O)C3N2NC(=O)OC(C)(C)C)c2ccccc12 (stereo unspecified)	1

Enquiry: API: above_or_equal(metric=composite z-score, cutoff=0.3) for item `CCOC(=O)C1=CC[C@H]2C(=O)N(c3ccccc3)C(=O)[C@@H]12`
Return: 0

Enquiry: Now the same for Cc1ccc(C2C3C(=O)CC4C(=O)N(c5ccccc5)C(=O)C4C3CN2S(=O)(=O)c2ccc(C)cc2)cc1 (stereo unspecified)
Return: 0

Enquiry: Now the same for `C[N+](C)(C)CCCC[C@@H]1NC(=O)[C@@H]2C[C@H](C(=O)NCCCCCN)[C@H](c3ccc(O)cc3)N2C1=O`
Return: 0

====

protocolNotes: small molecules captured by biotinylated probe aFGF10 – biochemical, small-molecule microarray, fluorescence 635/667, stem cell growth factor project, primary screen (AID 1071);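 also: score merges 667 nm spot intensity and signal to noise from triplicate slides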
runConditions: higher = more signal
assayEndpoint: composite z-score
Write the value as a bare number.

compound	assayEndpoint	reportedValue
O=C(NC1CC1)[C@@H]1c2ccccc2C(=O)N(C2Cc3ccccc3C2)[C@H]1c1ccc(CO)cc1	composite z-score	0.139
CCOC(=O)C1=CCC(c2ccc(F)cc2)N(S(=O)(=O)c2ccc(C)cc2)C1 (centres undefined)	composite z-score	-0.105
Cc1ccc(S[C@]2(C(=O)NCC(C)C)CC(=O)N(Cc3cc(C(F)(F)F)cc(C(F)(F)F)c3)[C@@H]2c2ccc(CO)cc2)cc1	composite z-score	-0.272

# ---- query compound ----
Enquiry: Record request: composite z-score value, item `O=C(CS)NCCCCCNC(=O)[C@H]1C[C@H]2C(=O)NCC(=O)N2[C@H]1c1ccc(O)cc1`
Return: -0.583

====

protocolNotes: change in splice reporter luminescence, either direction, cell-based, HEK293, spliceosome inhibition project, primary screen (AID 1101);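 also: HEK293 cells carrying a splicing-competent luciferase reporter gene; test concentration not given here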
runConditions: HEK293 splicing luciferase reporter, 24 h, higher = more signal, called active from +8 up or from −8 down
# Lookup of reported z-score keyed by entry
Write the value as a bare number.

compound	reportedValue
CCCCN1CC=CC23O[C@@H]4C=CCOC(=O)[C@@H]4[C@H]2C(=O)N(CCCCCCO)[C@@H]3C1=O (stereo not given in full)	0.381
CC1CC/C=C\[C@H]2OC34C=CCN(c5ccc6ccccc6c5)C(=O)[C@H]3N(CCO)C(=O)[C@@H]4C2C(=O)O1 (stereo not given in full)	-0.538
C=C(/C(=C/C[C@H](OC(=O)c1ccncc1)c1ccc(OCCO)cc1)c1cc(C(=O)OC)ccc1OC)C(C)C	-0.821

Enquiry: Record request: z-score value, item `C=C(CCCC)C(=O)CC[C@H](OC(=O)c1cccnc1)c1ccc(OCCO)cc1`
Return: 0.98

Enquiry: Now the same for `[N-]=[N+]=NCc1ccccc1[C@@H]1OC(c2ccc(OCCCO)cc2)=N[C@]1(CCS(=O)(=O)c1ccccc1)C(=O)N1CCCCC1`
Return: -0.162

Enquiry: Now the same for CC1CC/C=C\[C@H]2OC34C=CCN(Cn5nnc6ccccc65)C(=O)[C@H]3N(CCCCCO)C(=O)[C@@H]4C2C(=O)O1 (stereo not given in full)
Return: 0.271

Enquiry: Now the same for `COCCOC(=O)N1C(=O)[C@@]2(c3cc(C#CC4=CCCCC4)ccc31)[C@H](C(N)=O)[C@H]1C(=O)O[C@H](c3ccccc3)[C@H](c3ccccc3)N1[C@@H]2c1ccc(O)cc1`
Return: -1.18

Enquiry: Now the same for `COc1ccc([Si](C)(C)[C@@H]2[C@@H](CCO)O[C@]3(C(=O)N(Cc4cccc(N5CCOC5=O)c4)c4ccccc43)[C@H]2C)cc1`
Return: -0.871

Enquiry: Now the same for `O=C1[C@H]2C=C(I)[C@H](C[C@@H]2OCCCCO)[C@@]12CO2`
Return: 0.0898

Enquiry: Now the same for `COCCOC(=O)N1C(=O)[C@@]2(c3ccccc31)[C@H](C(=O)N1CCc3cc(OC)c(OC)cc3C1)[C@H]1C(=O)O[C@H](c3ccccc3)[C@H](c3ccccc3)N1[C@@H]2c1ccc(O)cc1`
Return: 0.251

====

measuredTarget: Pro-neuregulin-1, membrane-bound isoform (Homo sapiens)
protocolNotes: small molecules binding neuregulin-1 protein – biochemical, small-molecule microarray, fluorescence 635/667, psychiatric disease protein project, primary screen (AID 1075);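 also: score combines 667 nm spot fluorescence with signal to noise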
runConditions: NRG1 binding, 635 nm fluorescence, higher = more signal
assayEndpoint: composite z-score

Reference set (8 entries):
compound	measuredTarget	composite z-score
COc1ccc(C#Cc2ccc3c(c2)[C@]2(C(=O)N3)[C@H](c3ccc(O)cc3)N3[C@H](c4ccccc4)[C@H](c4ccccc4)OC(=O)[C@H]3[C@@H]2C(=O)N2CCc3cc(OC)c(OC)cc3C2)cc1	Pro-neuregulin-1, membrane-bound isoform (Homo sapiens)	1.32
C#CCNCc1ccccc1	Pro-neuregulin-1, membrane-bound isoform (Homo sapiens)	-0.358
C=C(CCCC)C(=O)CC[C@@H](OC(C)=O)c1ccc(CO)o1	Pro-neuregulin-1, membrane-bound isoform (Homo sapiens)	-0.306
O=C1C2C=CC(C(O)c3cc(C(F)(F)F)cc(C(F)(F)F)c3)N(Nc3ccccc3)C2C(=O)N1c1ccccc1 (stereo not given)	Pro-neuregulin-1, membrane-bound isoform (Homo sapiens)	1.8
COCCOC(=O)N1C(=O)[C@@]2(c3cc(C#CC4=CCCCC4)ccc31)[C@H](c1ccc(OCCO)cc1)N1[C@H](c3ccccc3)[C@H](c3ccccc3)OC(=O)[C@H]1[C@@H]2C(=O)N1CCc2cc(OC)c(OC)cc2C1	Pro-neuregulin-1, membrane-bound isoform (Homo sapiens)	0.395
COC(=O)[C@@]1(Cc2ccc(F)cc2)[C@H]2c3cc(C(=O)N(C)C)n(Cc4ccc(C)o4)c3C[C@H]2CN1C(=O)c1ccccc1	Pro-neuregulin-1, membrane-bound isoform (Homo sapiens)	1.8
COC(=O)[C@H](Cc1ccccc1)N[C@H](/C=C/C1CC1)[C@@H](O)Cc1ccccc1	Pro-neuregulin-1, membrane-bound isoform (Homo sapiens)	-0.0373
O=C1OCCC=C[C@H]2OC34C=CCN(Cn5nnc6ccccc65)C(=O)[C@H]3N(CCO)C(=O)[C@@H]4C12 (stereo not given in full)	Pro-neuregulin-1, membrane-bound isoform (Homo sapiens)	0.0802

Enquiry: Record request: composite z-score value, item `C=CC[C@]1(C(=O)N2CCOCC2)N=C(c2ccc(OCCCO)cc2)O[C@H]1c1ccccc1N=[N+]=[N-]`
Return: 1.8

Enquiry: Now the same for `COCCOC(=O)N1C(=O)[C@@]2(c3cc(C#CC4(O)CCCCCC4)ccc31)[C@H](c1ccccc1OCCO)N1[C@H](c3ccccc3)[C@H](c3ccccc3)OC(=O)[C@H]1[C@@H]2C(=O)N1CCc2cc(OC)c(OC)cc2C1`
Return: 1.6

Enquiry: Now the same for `CN(C)CCCCNC(=O)[C@@H]1C[C@@H]2C(=O)N[C@@H](CCCCN)C(=O)N2[C@@H]1c1ccc(O)cc1`
Return: 0.707

Enquiry: Now the same for CCOc1ccc(N2C(=O)CSC2c2cccc([N+](=O)[O-])c2)cc1 (stereo not given)
Return: 1.64

Enquiry: Now the same for C=CC1c2cc(O)c(OC)cc2CCN1Cc1cccc(OC(F)(F)F)c1 (stereo not given)
Return: 1.59

Enquiry: Now the same for `COCCOC(=O)N1C(=O)[C@@]2(c3cc(C#CC4=CCCCC4)ccc31)[C@H](C(N)=O)[C@H]1C(=O)O[C@H](c3ccccc3)[C@H](c3ccccc3)N1[C@@H]2c1ccc(O)cc1`
Return: 0.758

Enquiry: Now the same for O=C1C2C=CC(C(O)c3ccc(-c4ccccc4)s3)N(Nc3ccccc3)C2C(=O)N1c1ccccc1 (stereo not given)
Return: 2
